System: Staphylococcus aureus
ASSAY_PROCEDURE: Antimicrobial activity against methicillin-sensitive Staphylococcus aureus CCARM 3640 incubated for 24 hrs by microtiter broth dilution method
Assay type: functional
MEASUREMENT_CONTEXT: CCARM 3640, 24 h
Measured MIC of individual entries
Give just the number in µg/mL; leave the unit off.

Worked cases, answers included:
COMPOUND	UNITS_LABEL	MIC
O=C1O/C(=C\c2cc(Br)c(O)c(Br)c2)C(c2ccc(O)c(Br)c2)=C1C(=O)c1cc(Br)c(O)c(Br)c1 [CADIOLIDE E]	µg/mL	0.25
O=C1O/C(=C\c2ccc(O)c(Br)c2)C(c2cc(Br)c(O)c(Br)c2)=C1C(=O)c1cc(Br)c(O)c(Br)c1 [CADIOLIDE D]	µg/mL	0.25
CC12C[C@@]34C=CC(=O)[C@@](C)(CCC(=O)Nc5c(O)ccc(C(=O)O)c5O)C3[C@H](CC1C4)O2 (some centres not stated)	µg/mL	8

# ---- query compound ----
Q: # input compound: O=C1O/C(=C\c2cc(Br)c(O)c(Br)c2)C(c2cc(Br)c(O)c(Br)c2)=C1C(=O)c1cc(Br)c(O)c(Br)c1 [CADIOLIDE B] ; wanted: its MIC
A: 1

The reported numbers originate from ChEMBL document CHEMBL2203068.
